# tested_on: Mixed Lineage Kinase 1 (MLK1) (Homo sapiens, UniProt P80192)
# Sequence (P80192 whole entry, species assumed): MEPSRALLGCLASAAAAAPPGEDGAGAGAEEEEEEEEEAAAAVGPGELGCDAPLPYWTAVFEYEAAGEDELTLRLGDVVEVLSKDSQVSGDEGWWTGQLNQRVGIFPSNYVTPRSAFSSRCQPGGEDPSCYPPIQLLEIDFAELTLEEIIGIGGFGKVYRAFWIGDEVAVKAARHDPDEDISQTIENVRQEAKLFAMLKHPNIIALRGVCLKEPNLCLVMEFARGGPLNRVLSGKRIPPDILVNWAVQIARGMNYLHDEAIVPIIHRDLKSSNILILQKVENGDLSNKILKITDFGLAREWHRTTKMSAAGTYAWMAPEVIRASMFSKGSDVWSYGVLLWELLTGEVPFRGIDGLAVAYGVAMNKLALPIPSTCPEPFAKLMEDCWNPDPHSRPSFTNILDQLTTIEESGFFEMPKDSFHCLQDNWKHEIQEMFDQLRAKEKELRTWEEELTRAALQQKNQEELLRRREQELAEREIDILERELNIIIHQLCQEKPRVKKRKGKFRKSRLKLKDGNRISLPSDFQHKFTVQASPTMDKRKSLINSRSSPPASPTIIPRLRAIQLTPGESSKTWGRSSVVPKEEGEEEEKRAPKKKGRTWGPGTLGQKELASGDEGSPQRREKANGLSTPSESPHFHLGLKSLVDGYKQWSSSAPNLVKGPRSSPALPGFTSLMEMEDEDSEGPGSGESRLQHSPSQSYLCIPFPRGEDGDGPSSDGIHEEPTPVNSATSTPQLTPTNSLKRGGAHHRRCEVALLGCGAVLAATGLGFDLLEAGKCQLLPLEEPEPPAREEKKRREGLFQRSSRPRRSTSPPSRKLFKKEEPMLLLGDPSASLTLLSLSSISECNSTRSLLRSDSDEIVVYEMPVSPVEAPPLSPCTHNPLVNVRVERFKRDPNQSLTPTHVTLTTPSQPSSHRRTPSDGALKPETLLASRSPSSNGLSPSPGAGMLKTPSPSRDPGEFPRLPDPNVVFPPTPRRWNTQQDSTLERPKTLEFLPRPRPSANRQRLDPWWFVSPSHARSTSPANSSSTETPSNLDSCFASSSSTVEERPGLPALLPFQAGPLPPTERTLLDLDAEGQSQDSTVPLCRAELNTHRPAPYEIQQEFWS
pIC50: −log10 of the molar value.
assay_readout: pIC50

Give pIC50 for this entry on Mixed Lineage Kinase 1 (MLK1) (Homo sapiens, UniProt P80192): CC(=O)N1CCN(c2nc3c(N4CCOCC4)nc(-c4cnc(N)nc4)nc3n2CC(F)(F)F)C[C@H]1C > 6.70

* * *

# tested_on: PI3Kβ (Homo sapiens, UniProt P42338)
# Sequence (P42338 whole entry): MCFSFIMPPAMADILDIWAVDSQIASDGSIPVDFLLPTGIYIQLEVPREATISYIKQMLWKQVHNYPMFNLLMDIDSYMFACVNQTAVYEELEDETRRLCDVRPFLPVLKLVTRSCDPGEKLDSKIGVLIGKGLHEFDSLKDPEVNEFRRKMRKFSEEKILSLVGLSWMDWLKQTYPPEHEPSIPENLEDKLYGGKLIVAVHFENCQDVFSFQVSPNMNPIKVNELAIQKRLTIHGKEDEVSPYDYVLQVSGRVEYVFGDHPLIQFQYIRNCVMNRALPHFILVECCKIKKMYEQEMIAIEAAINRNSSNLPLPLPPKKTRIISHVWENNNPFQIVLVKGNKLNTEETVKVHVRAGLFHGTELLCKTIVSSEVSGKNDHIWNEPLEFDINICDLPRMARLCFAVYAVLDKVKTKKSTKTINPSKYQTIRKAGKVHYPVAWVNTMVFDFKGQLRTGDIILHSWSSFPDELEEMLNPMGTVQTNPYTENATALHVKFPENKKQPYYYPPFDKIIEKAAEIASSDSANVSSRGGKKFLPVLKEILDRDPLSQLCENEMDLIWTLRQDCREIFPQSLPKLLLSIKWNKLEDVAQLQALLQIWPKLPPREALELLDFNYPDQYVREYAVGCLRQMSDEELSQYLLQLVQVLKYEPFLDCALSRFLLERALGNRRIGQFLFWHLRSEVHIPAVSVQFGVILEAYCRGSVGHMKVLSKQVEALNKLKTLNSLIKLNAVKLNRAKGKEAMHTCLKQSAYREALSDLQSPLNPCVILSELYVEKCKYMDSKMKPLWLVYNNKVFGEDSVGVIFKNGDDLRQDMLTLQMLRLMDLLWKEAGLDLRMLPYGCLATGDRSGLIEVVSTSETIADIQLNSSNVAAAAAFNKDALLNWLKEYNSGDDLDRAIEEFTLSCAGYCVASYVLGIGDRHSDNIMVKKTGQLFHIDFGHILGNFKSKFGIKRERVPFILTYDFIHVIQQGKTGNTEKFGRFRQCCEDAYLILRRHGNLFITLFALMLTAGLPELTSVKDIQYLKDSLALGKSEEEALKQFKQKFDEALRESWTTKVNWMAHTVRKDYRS
# Sequence (P27986 whole entry partner): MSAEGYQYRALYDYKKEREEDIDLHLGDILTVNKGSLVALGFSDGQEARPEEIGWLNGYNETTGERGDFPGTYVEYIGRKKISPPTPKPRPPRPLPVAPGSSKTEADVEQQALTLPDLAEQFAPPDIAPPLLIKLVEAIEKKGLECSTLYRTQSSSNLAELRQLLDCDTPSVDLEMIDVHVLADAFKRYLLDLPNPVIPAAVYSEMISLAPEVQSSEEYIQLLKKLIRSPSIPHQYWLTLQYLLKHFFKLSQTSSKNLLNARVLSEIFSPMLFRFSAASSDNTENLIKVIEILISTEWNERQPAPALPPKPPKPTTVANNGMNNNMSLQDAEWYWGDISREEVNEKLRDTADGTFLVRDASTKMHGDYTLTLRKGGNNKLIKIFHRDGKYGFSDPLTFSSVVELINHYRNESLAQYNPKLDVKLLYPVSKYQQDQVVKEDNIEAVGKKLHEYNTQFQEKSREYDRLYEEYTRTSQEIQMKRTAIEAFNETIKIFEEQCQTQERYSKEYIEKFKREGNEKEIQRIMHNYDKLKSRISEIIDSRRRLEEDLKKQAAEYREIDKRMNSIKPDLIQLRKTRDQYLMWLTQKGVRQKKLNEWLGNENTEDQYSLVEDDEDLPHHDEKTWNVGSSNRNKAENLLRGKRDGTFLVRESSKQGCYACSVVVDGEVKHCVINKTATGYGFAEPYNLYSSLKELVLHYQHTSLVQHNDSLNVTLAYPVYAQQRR
# procedure_summary: PI3Kβ inhibition
# Assay type: biochemical
assay_readout: pIC50
Give bare numbers, as −log10 of the molar value.

Supply pIC50 value. Item: CC(=O)N1CCN(c2nc3c(N4CCOCC4)nc(-c4cnc(N)nc4)nc3n2CC(F)(F)F)C[C@H]1C [DS-7423] 5.94

* * *

# tested_on: Never-In-Mitosis Gene A (NIMA)-related kinase 2 (NEK2) (Homo sapiens)
# Sequence (P51955 whole entry, species assumed): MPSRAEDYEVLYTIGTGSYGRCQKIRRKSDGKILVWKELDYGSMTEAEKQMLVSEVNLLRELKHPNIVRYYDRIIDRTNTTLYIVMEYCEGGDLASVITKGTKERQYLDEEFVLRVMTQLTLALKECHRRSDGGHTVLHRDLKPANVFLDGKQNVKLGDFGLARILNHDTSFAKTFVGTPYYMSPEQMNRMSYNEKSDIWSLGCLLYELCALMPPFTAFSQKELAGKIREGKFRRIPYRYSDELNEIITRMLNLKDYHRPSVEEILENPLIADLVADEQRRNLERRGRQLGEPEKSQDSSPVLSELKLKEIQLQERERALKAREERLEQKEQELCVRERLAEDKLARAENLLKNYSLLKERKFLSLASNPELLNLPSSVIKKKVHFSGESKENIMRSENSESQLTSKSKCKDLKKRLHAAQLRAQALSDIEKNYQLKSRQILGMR
assay_readout: IC50

Supply IC50 value. Item: CC(=O)N1CCN(c2nc3c(N4CCOCC4)nc(-c4cnc(N)nc4)nc3n2CC(F)(F)F)C[C@H]1C < 200 nM

Where these numbers come from: paper PMC3913610
